system: Plasmodium berghei; test: Screen against P. berghei liver stage (PbLuc), transformed with Luciferase, at 10uM; assay type: functional, HepG2; conditions: tested at 10 uM
Screen size: about 69,000 compounds; about 8,600 (12%) showed an effect of 50% or more. The entries come from a sample that favours strong results as a whole.
measured metric: INHIBITION (%)
Give bare numbers, in %.

COc1ccc(-c2cccc3c2OC(CN)C3)cc1F (stereo not drawn) : 47.1

Each of the following entries comes with a recorded value; kindly state INHIBITION for each.
1. COCCCN1CCc2cncnc2C1
2. CN(C)C(CNC(=O)NCCS(C)(=O)=O)c1ccco1 (stereo not drawn)
3. Cc1ncc2c(n1)CN(CC1CCCCO1)CC2 (stereo not drawn)
4. COc1ccc(-c2nnc(C(C)N3CCOC(C)(C)C3)o2)cc1 (stereo not drawn)
5. CC(=O)Nc1nc(C(=O)NCc2ccnc(N3CCCC3)c2)cs1
6. COc1ccc(-c2nnc(C(C)N3CCC4(CC3)OCCO4)o2)cc1 (stereo not drawn)
7. CN(CC(=O)N1CCCCC1c1nc(C(C)(C)C)cs1)C1CC1 (stereo not drawn)
8. O=C(CSC1=NS(=O)(=O)c2cc(Cl)ccc2N1)c1ccccc1

1: 40.3; 2: -18.3; 3: 3.17; 4: 21.6; 5: 9.14; 6: 69.3; 7: -19.9; 8: 11.8

----------
Provide the reported INHIBITION of each item.
system: Plasmodium berghei; test: Screen against P. berghei liver stage (PbLuc), transformed with Luciferase, at 10uM; format: functional, HepG2; details: tested at 10 uM
Among all 69,000 compounds or so, about 8,600 (12%) showed an effect of 50% or more. The full list was thinned out, with strong results kept by preference.
One number for each entry, in %.

Examples from the recorded data:
COc1ccc(CN2CCC(O)CC2)c(OC)c1 : 1.81
Cn1nc(C(C)(C)C)cc1NC(=O)Cn1ccccc1=O : 54.3
COc1ccc(CN2CC[C@H](NC(C)=O)[C@@H](O)CC2)c(OC)c1 : 35.3
Cc1cc(C)cc(C(=O)N2CCCC3(CCCC(=O)N3C)C2)c1 (stereo unspecified) : -15.9
O=C(c1cc(-c2cccs2)cs1)N1CCOCC1 : -132

Now turn to the next compound.
Provide value of INHIBITION for this record tested with Plasmodium berghei: COc1cc(Oc2ccc(C(N)=O)cn2)ccc1CN1CCCC1
-0.27

----------
tested on: Plasmodium berghei; test: Screen against P. berghei liver stage (PbLuc), transformed with Luciferase, at 10uM; assay type: functional, HepG2; settings: tested at 10 uM
Out of some 69,000 compounds screened, about 8,600 (12%) showed an effect of 50% or more. This is one part of a sample in which strong results are shown more often than they occur.
I'd appreciate it if you could supply INHIBITION values for the items below.
Answers are plain numbers, in %.

Could you report INHIBITION for every entry in the following list?
1. O=C(C1CCCO1)N1CCC(Cn2cc(C3CCCC3)nn2)CC1 (stereo unspecified)
2. Cn1cc(-c2ncc3c(c2C(=O)O)CCN(CC2CCOC2)C3)cn1 (stereo unspecified)
3. CC(=O)N1C[C@H]2CC[C@@H](C1)N(C(=O)CCc1n[nH]c3c1CCCC3)C2
4. CCc1ocnc1C(=O)N1CCCC1c1noc(C)n1 (stereo unspecified)
5. CN(Cc1cc[nH]n1)C(=O)c1cn(Cc2c(F)cccc2F)nn1

[34.2, 17.7, 48.5, 5.07, 19.3]

Value lookup for INHIBITION; key = CC(C)(CN1CCCC1)CN1CCC(Cn2cc(C3CC3)nn2)CC1
41.2

----------
Please go through the items and note down their INHIBITION.
test system: Plasmodium berghei; assay: Screen against P. berghei liver stage (PbLuc), transformed with Luciferase, at 10uM; format: functional, HepG2; settings: tested at 10 uM
Among all 69,000 compounds or so, about 8,600 (12%) showed an effect of 50% or more. The entries come from a sample that favours strong results as a whole.
Numbers only, in %.

Example molecules with recorded INHIBITION:
CN(C)C(=O)c1sc2ncccc2c1C1CNCCO1 (configuration not stated) : 12.8
CCC(C)(CC(=O)O)NC(=O)Cc1ccccc1F (configuration not stated) : 64.2
CCc1ccc(S(=O)(=O)N2Cc3c(CN(C)C)nn(C)c3C2)cc1 : 72
CC(C)(NC(=O)Cc1ccccc1F)C(=O)O : -16
O=S(=O)(NCCCN1CCCC1)c1cc(F)cc(F)c1 : 71.3

Provide INHIBITION for all items below, preserving their order.
1. Cc1ccc(C(=O)NS(=O)(=O)c2cc(F)ccc2F)c(=O)[nH]1
2. Fc1ccc(OCCNCCn2cccn2)cc1

1. -1.14
2. 0.914

Provide each entry's INHIBITION from the list below.
1. CNC(=O)C1CN(C(=O)c2ccncc2)CCN(S(C)(=O)=O)C1 (configuration not stated)
2. CN1CCN(C[C@@H]2OC[C@H]3CN(CCc4ccccc4)CC[C@H]32)CC1

[7.7, -40]

Your task in this section: give INHIBITION for each listed record.
1. CCC(C)(CC(=O)O)NC(=O)Cc1ccccc1Br (configuration not stated)
2. CC1CCN(CCCNS(=O)(=O)c2cc(F)cc(F)c2)CC1

[-49.7, 51.4]

Which measured INHIBITION belongs to CC(=O)NCC(=O)N1CCC2(CC1)NC(=O)CC2c1cccnc1 (configuration not stated) , tested on Plasmodium berghei?
34.6

----------
test system: Plasmodium berghei; test: Screen against P. berghei liver stage (PbLuc), transformed with Luciferase, at 10uM; format: functional, HepG2; conditions: tested at 10 uM
About 8,600 (12%) of roughly 69,000 compounds showed an effect of 50% or more. What follows is part of a selection rich in strong results, with near analogues and random picks from the rest.
Values of INHIBITION strictly less than 20% map to Fulfilled, and values of at least 20% map to Not fulfilled.

Clc1cncc(N2CCCC2c2nnc3n2CCCCC3)n1 (configuration not stated) : Fulfilled
COCC1c2c(cnn2CC2CC2)CCN1Cc1cc(C)on1 (configuration not stated) : Not fulfilled
O=C(c1cccc(F)c1)N1CCC2(CC1)CC(N1CCOCC1)C2 : Fulfilled
Cc1nnc(C(C)N2CCN(Cc3ccc(C(F)(F)F)cc3)CC2)o1 (configuration not stated) : Fulfilled
CC(=O)c1ccc(C(=O)N2C[C@@H](CN3CCCC3)[C@@H](CO)C2)cc1 : Not fulfilled
Cc1cc2nc(SCC(=O)N3CCCC3)n(C(C)C)c(=O)c2[nH]1 : Fulfilled

Lab note: INHIBITION threshold 20%. Does this compound come in strictly under it? Cc1noc(C)c1CN(C)C(=O)c1ccc(O)nc1
Not fulfilled

// next record O=C(NCC1CCC(c2ccnc3ncnn23)CC1)C1CC1 (configuration not stated)
Not fulfilled

Try this compound next: CCCc1cc(C(=O)NCCN2CCCS2(=O)=O)[nH]n1
Fulfilled

Same question, CN(Cc1ccco1)[C@@H]1CN(CC2CCOCC2)[C@@H]2CCCO[C@H]12 this time
Not fulfilled

Then this compound: CO[C@H]1CN(C(=O)OC(C)(C)C)CC1NCc1ccoc1 (some centres not stated)
Not fulfilled

CCOCC(=O)NCCCn1ccnc1-c1ccccc1 , same question.
Fulfilled

Entry Cc1cccc(CNC2CC(=O)N(Cc3cccc(F)c3)C2)c1 (configuration not stated) please
Fulfilled

Try the compound CC(c1cccc(Cl)c1)N(C)Cc1nc2c(cnn2C)c(=O)[nH]1 (configuration not stated)
Fulfilled

----------
Assign INHIBITION to each entry below.
tested on: Plasmodium berghei; test: Screen against P. berghei liver stage (PbLuc), transformed with Luciferase, at 10uM; assay type: functional, HepG2; conditions: tested at 10 uM
Hit rate of the full screen: of about 69,000 compounds, about 8,600 (12%) showed an effect of 50% or more. What follows is part of a selection rich in strong results, with near analogues and random picks from the rest.
One number for each entry, in %.

Example cases with answers are listed next.
CC(C)(C)CN1CC(COc2ccccc2)Oc2ccncc2S1(=O)=O (configuration not stated) : 59.3
O=C(NCc1cccnc1-n1cncn1)C1CC2(CCNCC2)CN1 (configuration not stated) : 20.2
c1nc(CCNc2nc(C3CC3)nc3c2CCNCC3)c[nH]1 : -3.77
CSc1ccccc1C(C(=O)O)N1CCN(Cc2ccccn2)CC1 (configuration not stated) : 33.5
CCN1CC(COc2ccc(OC)cc2)Oc2ccncc2S1(=O)=O (configuration not stated) : -10.3
O=S1(=O)c2cnccc2OC(COc2ccccc2)CN1CC1CC1 (configuration not stated) : 22.2

List the reported INHIBITION of each molecule below.
1. Cc1ccc(NC(=O)N2CCN(Cc3ccccn3)CC2)cc1Cl
2. O=C(c1cc(Cl)c[nH]1)N1CCN(CCc2ccccn2)CC1
3. COc1ccc(C)cc1C(C(=O)O)N1CCN(Cc2ccccn2)CC1 (configuration not stated)
4. Cc1c(Cl)cccc1NC(=O)N1CCN(Cc2ccccn2)CC1
5. c1cncc(-c2noc(CNCC3CCCN3c3cccnn3)n2)c1 (configuration not stated)
6. O=C(c1ccccc1Cl)N1CCN(CCc2ccccn2)CC1

1: 42.1; 2: 9.79; 3: 26.7; 4: 64.3; 5: -7.81; 6: 30
